These data points were gathered from paper PMC10397247.

- target.or.system: T1, 4H932-bN
- T1 chain: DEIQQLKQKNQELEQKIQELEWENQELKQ
- assay.overview: two-hybrid library CCNG1;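 further: natural log of median RNA to DNA barcode read ratio; higher means stronger binding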

binder	interaction score
DENQELEKKIEELKREIWELKKKNQELER [4H1359-bH]	-1.75
DKIQQLKQKIQELKQKNQELEWENQELEQ [4H2931-bN]	-0.619
DKIQQLEQENQELEQKNQELKWEIQELEQ [4H2233-bN]	-1.19
DKIQQLEQENQELKQEIQELKWKIQELEQ [4H2253-bN]	-0.7
DKIQQLKQENQELKQEIQELEWKNQELKQ [4H2760-bN]	-1.77
DENQELEKKIEELKRENWELKKKIQELER [4H1373-bH]	0.58
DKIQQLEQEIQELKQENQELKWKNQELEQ [4H2143-bN]	0.299
